Just for reference, ChEMBL document CHEMBL4513216 is where these values come from.

test: Toxicity liver stage against HepG2, at 10uM; format: cell-based; set-up: test concentration 10 uM, cell line HepG2-A16-CD81EGFP; conditions: human, HepG2-A16-CD81EGFP cells; read-out: INHIBITION
metric: cytotoxicity at 10 µM (%)
The response must be a number in % with no trailing unit.

molecule	cytotoxicity at 10 µM / %
Cc1ccccc1OCCC(=O)N1CCC(c2nncn2C)CC1	-13.3
COCC1c2c(cnn2CC2CC2)CCN1Cc1ccc(C)o1 (stereo unspecified)	-0.201
Cc1ccc(OCCSC2=NCCN2)cc1	-2.01
Cc1ccc(C2CCCN2Cc2nc(-c3ccco3)no2)cc1 (stereo unspecified)	26.1
COCCN1C[C@@H]2[C@@H](OC)CCN(C(=O)c3cccc(OC)c3)[C@@H]2C1	-1.01

As a next step, examine the molecule that follows.
What does the data say about its cytotoxicity at 10 µM? Entry: COc1ccc(CNC(C)c2cccc(Br)c2)c(OC)c1OC (stereo unspecified) 9.75
